system: ATP; experiment: switch fluorescence ratio, 500 uM ATP over buffer (Cy3 cluster intensity, sum of 5 cycles each) (fold (ratio)); higher = stronger signal-on switching upon ATP binding; sequences stand for … in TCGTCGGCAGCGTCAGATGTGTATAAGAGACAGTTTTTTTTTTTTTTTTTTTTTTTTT…TC; settings: aptamer strand: ATP DNA aptamer (quencher-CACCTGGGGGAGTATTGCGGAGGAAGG + anchor), 100 nM annealed; ATP concentration: 500 uM;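 further: ATP exposure 15 min at 22 °C before imaging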
outcome.measure: switch fluorescence ratio

* GGCTCGGTAC | 1.24
* GCGCCAGGCG | 0.998
* ATAGAAGGGG | 1.08
* TGGGAGGGTT | 1.12
* CGGGTAGGGT | 0.998
* GAATGGGACG | 1
* AGGCTTAAAT | 0.989
* AGTATAGGGG | 1.01
* AAGTCTAAGG | 0.964
* GGGGTTCC | 0.998
* TCATATGGTT | 0.999
* AAGGGTGTCA | 1.02
* GGTGTAGGGG | 1.04
* ATAGAGTTTG | 0.976
* GGATCACACT | 1.02
* CCATGATGGT | 1.01
* GAGGGTGTAA | 1
* TTGGGCTGGT | 0.962
* GTTCTGGGAG | 1
* GATTTTTACT | 1.02
* AGGTACGGCC | 1.03
* CAACTATTTG | 1
* CGGCTGTGGT | 1.01
* TAAGGCATAG | 1.04
* CTTCTTGGAG | 0.967
* GGAATGTGTT | 0.972
* TAGATTGTA | 1.01
* GTATAGGGAA | 1
* TGGAGTGTTT | 0.94
* AATTTGATAA | 0.981
* CAGGTGAGAA | 1.16
* TGAGTTAGAT | 1
* GTAGGACCTA | 1.01
* GGTGTTTCGC | 0.994
* GATGAGGAAG | 1.01
* AGGGTAGATC | 1.03
* TTTTACCACC | 1.22
* TTCTTTAGAA | 1.03
* TCGTGTATCT | 0.946
* TACATATCTT | 1.01
* TGCAGGGGTG | 1.06
* ATTAAAGGGA | 1
* GATATTTTCG | 1.01
* GCGTTTAGAA | 0.987
* GTACTCGGGG | 0.999
* CATGGGGGTT | 0.991
* GTAAGTGAAG | 1.05
* ACGCGGGGGA | 1.03
* GACTAATTAA | 0.978
* TAATGAGCTT | 0.995
* AGGGGGGGGA | 1.01
* AGGATGGACC | 1.01
* CCCGAAGGTA | 1.01
* GTGAAAGCGT | 0.961
* TAGCCTGTTG | 0.967
* TTTAGCTAGG | 1.01
* CGGTTTAAGC | 0.994
* ATGCGCAGGG | 1.04
* CTATTATCTG | 1.01
* TTGGCCCCCA | 1.01
* GTAATAAGGT | 1.02
* TAGTAATGTG | 0.993
* GGGGTCGTTC | 0.99
* CATGACCTTT | 1.04
* TAGAGGCTGA | 0.994
* ATACGAGGGC | 1.01
* GTTATTACGT | 1.03
* ACGTGTTTTG | 1.02
* ACGCGGCTAT | 1.06
* AGAGGCCTTG | 0.969
* TGGGACCGGC | 0.98
* TCGTGAGGGG | 1.02
* ACGTATCTTG | 1.08
* CTAGGGGGAT | 0.996
* TGTTAGAATC | 0.963
* GTACGGGAAG | 1.19
* TTGGTTTACC | 0.957
* CATAGGGTGA | 1.01
* AATTTAAAAC | 1.02
* TTCTTTTATC | 0.983
* TGCGATTTTT | 1.01
* GATGAAGGGA | 0.979
* TAGGGGTGTT | 1.06
* AAGCGCTTTT | 0.979
* CAATATTATG | 1.02
* TTTAGGCTGG | 0.979
